subjectOfTest: Hypoxia-inducible factor 1-alpha (Homo sapiens)
assayMethodText: activators of HIF1alpha nuclear accumulation, confirmation, imaging, fluorescence, U2OS GFP-HIF1alpha (AID 434951)
assaySetup: U2OS GFP-HIF1alpha nuclear intensity, high-content imaging
Activity calls are given as the source filed them.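 The calls were made as follows: active = a fitted half-maximal concentration EC50 for the rise in nuclear signal no higher than ten times the top dose tested; inconclusive = flat fit with activity between 30% and 70%, or unusable fit; inactive = EC50 beyond ten times the top dose.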
Outcome codes: yes = active, no = inactive

INSERT INTO assay_data (compound, subjectoftest, label) VALUES
  ('O=C(N/N=C/c1cc2cc3c(cc2nc1Cl)OCO3)c1ccncc1', 'Hypoxia-inducible factor 1-alpha (Homo sapiens)', 'no'),
  ('O=C(Nc1ccccc1O)c1ccc(NS(=O)(=O)c2cccc3cccnc23)cc1', 'Hypoxia-inducible factor 1-alpha (Homo sapiens)', 'yes'),
  ('Cc1cc(NC(=O)C2CC(=O)N(c3cccc(C)c3C)C2)no1 (stereo unspecified)', 'Hypoxia-inducible factor 1-alpha (Homo sapiens)', 'yes'),
  ('Cc1ccc(Nc2nnc(-c3ccccc3N)o2)cc1C', 'Hypoxia-inducible factor 1-alpha (Homo sapiens)', 'no'),
  ('COc1ccc(C(=O)NCCCOC(=O)c2ccc(OC)cc2)cc1', 'Hypoxia-inducible factor 1-alpha (Homo sapiens)', 'no'),
  ('CC(C)Sc1nc(N)c2c3c(sc2n1)CN(C)CC3', 'Hypoxia-inducible factor 1-alpha (Homo sapiens)', 'no'),
  ('Cn1c(SCC(=O)c2ccccc2)nnc1-c1ccco1', 'Hypoxia-inducible factor 1-alpha (Homo sapiens)', 'no'),
  ('O=C(N/N=C(\Cc1ncc[nH]1)c1ccccc1)c1ccccc1', 'Hypoxia-inducible factor 1-alpha (Homo sapiens)', 'no'),
  ('COc1ccc(N2CCN(C(=O)CN(C)S(=O)(=O)c3cc(C)ccc3OC)CC2)cc1', 'Hypoxia-inducible factor 1-alpha (Homo sapiens)', 'no'),
  ('O=C(Nc1ccccc1)N(C1=NCCCCS1)c1cccc2ccccc12', 'Hypoxia-inducible factor 1-alpha (Homo sapiens)', 'no'),
  ('CCN(CC)c1ccc(/C=N/Nc2nc(C)cc(=O)[nH]2)c(O)c1', 'Hypoxia-inducible factor 1-alpha (Homo sapiens)', 'yes'),
  ('Cc1cc(C)c2c(N)c3ccccc3nc2n1', 'Hypoxia-inducible factor 1-alpha (Homo sapiens)', 'yes'),
  ('OCCC#Cc1ccc(CN2CCN(Cc3ccccc3)C(CCO)C2)cc1 (stereo unspecified)', 'Hypoxia-inducible factor 1-alpha (Homo sapiens)', 'no'),
  ('S=C(Nc1ccc2cn[nH]c2c1)Nc1ccccc1Cl', 'Hypoxia-inducible factor 1-alpha (Homo sapiens)', 'no'),
  ('CCCCC(=O)Nc1ccc(NC(=O)CC)cc1OC', 'Hypoxia-inducible factor 1-alpha (Homo sapiens)', 'no'),
  ('CCCCc1ccc(NC(=O)C2CCN(S(C)(=O)=O)CC2)cc1', 'Hypoxia-inducible factor 1-alpha (Homo sapiens)', 'no'),
  ('CC(=O)Cn1c(=O)c2c(nc3n2CCCN3Cc2ccccc2)n(C)c1=O', 'Hypoxia-inducible factor 1-alpha (Homo sapiens)', 'no'),
  ('Cc1ccc2nc(N3CCN(C)CC3)[nH]c2c1', 'Hypoxia-inducible factor 1-alpha (Homo sapiens)', 'no'),
  ('COc1ccc(O)c(/C=N/NC(=O)c2ccc(OCc3cccc(Br)c3)cc2)c1', 'Hypoxia-inducible factor 1-alpha (Homo sapiens)', 'yes'),
  ('CC(=O)c1ccc(N2C(=NC(=O)COc3ccccc3)SC3CS(=O)(=O)CC32)cc1 (stereo unspecified)', 'Hypoxia-inducible factor 1-alpha (Homo sapiens)', 'no'),
  ('COc1cccc(/C=N\NC(=O)Cn2nnc3ccccc32)c1O', 'Hypoxia-inducible factor 1-alpha (Homo sapiens)', 'no'),
  ('O=S(=O)(NCc1nnc2c(C(F)(F)F)cc(Cl)cn12)c1ccccc1', 'Hypoxia-inducible factor 1-alpha (Homo sapiens)', 'no'),
  ('COc1ccccc1N1CCN(CCCNC(=O)C2CCCN(c3ncnc4c3nc3n4CCCCC3)C2)CC1 (stereo unspecified)', 'Hypoxia-inducible factor 1-alpha (Homo sapiens)', 'no'),
  ('CCN(CC)c1ccc(/C=N/NC(=O)c2ccc3nc[nH]c3c2)c(O)c1', 'Hypoxia-inducible factor 1-alpha (Homo sapiens)', 'yes'),
  ('COc1ccc(-c2cc(C(F)(F)F)nc(S(=O)(=O)CCCC(=O)Nc3cc(C)on3)n2)cc1OC', 'Hypoxia-inducible factor 1-alpha (Homo sapiens)', 'no'),
  ('COc1ccc2nc(-c3cccc(N)c3)[nH]c2c1', 'Hypoxia-inducible factor 1-alpha (Homo sapiens)', 'no'),
  ('C(=N\Nc1nc2ccccc2[nH]1)/c1cccc2cccnc12', 'Hypoxia-inducible factor 1-alpha (Homo sapiens)', 'yes'),
  ('O=C(CSc1nnc(-c2ccco2)n1Cc1ccco1)NCc1ccccc1', 'Hypoxia-inducible factor 1-alpha (Homo sapiens)', 'no'),
  ('CCC1Oc2ccccc2N(CC(=O)Nc2ccccc2OC)C1=O (stereo unspecified)', 'Hypoxia-inducible factor 1-alpha (Homo sapiens)', 'no'),
  ('Cc1cc(C)cc(N(CC(=O)Nc2ccccc2C(=O)N2CCOCC2)S(C)(=O)=O)c1', 'Hypoxia-inducible factor 1-alpha (Homo sapiens)', 'no'),
  ('COc1cccc(CNC(=O)CCCn2c(=S)[nH]c3cc4c(cc3c2=O)OCO4)c1', 'Hypoxia-inducible factor 1-alpha (Homo sapiens)', 'no'),
  ('COc1cc(/C=C/C(=O)c2ccc3c(c2)OCCO3)cc(Br)c1OCC(=O)N(C)C', 'Hypoxia-inducible factor 1-alpha (Homo sapiens)', 'no'),
  ('COc1cccc(C(NC(C)=O)c2ccc3cccnc3c2O)c1 (stereo unspecified)', 'Hypoxia-inducible factor 1-alpha (Homo sapiens)', 'yes'),
  ('Cc1ccccc1N=Nc1ccc(O)c2ncccc12', 'Hypoxia-inducible factor 1-alpha (Homo sapiens)', 'yes'),
  ('Cc1ccc2[nH]c(C(=O)N/N=C/c3ccccc3O)c(C)c2c1', 'Hypoxia-inducible factor 1-alpha (Homo sapiens)', 'yes'),
  ('COc1cccc(/C=N/Nc2nccnc2Cl)c1O', 'Hypoxia-inducible factor 1-alpha (Homo sapiens)', 'yes'),
  ('CCOC(=O)CCS(=O)(=O)c1nc(-c2ccccc2)cc(C(F)(F)F)n1', 'Hypoxia-inducible factor 1-alpha (Homo sapiens)', 'no'),
  ('Cc1ccc(S(=O)(=O)N2CCOC23CCN(C(=O)c2cc(Cl)ccc2Cl)CC3)cc1', 'Hypoxia-inducible factor 1-alpha (Homo sapiens)', 'no'),
  ('CCCCCN(C(=O)CCC(=O)OCC(=O)c1ccc(C(C)CC)cc1)c1c(N)n(CCCC)c(=O)[nH]c1=O (stereo unspecified)', 'Hypoxia-inducible factor 1-alpha (Homo sapiens)', 'no'),
  ('O=C(/C=C/c1ccc2c(c1)OCO2)Nc1cccnc1', 'Hypoxia-inducible factor 1-alpha (Homo sapiens)', 'no'),
  ('COc1ccc(C2NN=C(c3ccc(C)cc3)S2)cc1 (stereo unspecified)', 'Hypoxia-inducible factor 1-alpha (Homo sapiens)', 'no'),
  ('CCCCNC(=O)c1cc(-c2ccc(F)cc2)on1', 'Hypoxia-inducible factor 1-alpha (Homo sapiens)', 'yes'),
  ('O=C(O)c1cccnc1SCc1ccccc1Cl', 'Hypoxia-inducible factor 1-alpha (Homo sapiens)', 'no'),
  ('Nc1nc(SCC(=O)N2CCCC2)[nH]c(=O)c1-c1ccccc1', 'Hypoxia-inducible factor 1-alpha (Homo sapiens)', 'no'),
  ('CC(C)(C)NC(=O)COC(=O)c1ccc(Cl)nc1', 'Hypoxia-inducible factor 1-alpha (Homo sapiens)', 'no'),
  ('O=C(COC(=O)c1ccccc1Nc1ccccc1)NCc1ccccc1Cl', 'Hypoxia-inducible factor 1-alpha (Homo sapiens)', 'no');
